The measured values listed here are drawn from patent US9908868B2.

The following compounds are shown together with reported EC50 values.
# Test Target: human GPR119 (Homo sapiens, UniProt Q8TDV5)
# Sequence (Q8TDV5 1-335): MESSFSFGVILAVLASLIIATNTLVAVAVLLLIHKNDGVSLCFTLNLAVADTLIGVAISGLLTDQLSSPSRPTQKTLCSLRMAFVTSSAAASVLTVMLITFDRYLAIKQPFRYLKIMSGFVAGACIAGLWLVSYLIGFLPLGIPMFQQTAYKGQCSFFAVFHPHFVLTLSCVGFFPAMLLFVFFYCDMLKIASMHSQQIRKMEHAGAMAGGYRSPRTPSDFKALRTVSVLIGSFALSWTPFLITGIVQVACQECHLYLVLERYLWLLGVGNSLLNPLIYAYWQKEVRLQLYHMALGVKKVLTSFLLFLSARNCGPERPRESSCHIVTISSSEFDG
# Assay Summary: Functional cellular assay measuring GPR119-mediated cAMP release (HTRF) in HEK-293 cells stably expressing recombinant human GPR119
# Stated Conditions: cAMP response, cell line expressing human GPR119, 30 minutes at room temperature
Answer format reminder: number followed by unit.

As a guide, the following entries are already answered.
[
  {
    "Compound": "CN(C)C(=O)CN1Cc2ccc(N3CC[C@@H](Oc4ccc(Oc5ccc(F)cc5F)nc4)C3=O)cc2C1=O",
    "EC50": "73 nM"
  },
  {
    "Compound": "CN(C)C(=O)CN1Cc2ncc(N3CC[C@@H](Oc4ccc(OCC(F)(F)F)nc4)C3=O)cc2C1=O",
    "EC50": "106 nM"
  },
  {
    "Compound": "C[S@@+]([O-])CN1Cc2ncc(N3CC[C@@H](Oc4ccc(OCC(F)(F)F)nc4)C3=O)cc2C1=O",
    "EC50": "131 nM"
  },
  {
    "Compound": "CN(C)C(=O)CN1Cc2ccc(N3CC[C@@H](Oc4ccc(OCC(F)(F)F)nc4)C3=O)cc2C1=O",
    "EC50": "62 nM"
  },
  {
    "Compound": "CNC(=O)CN1Cc2ccc(N3CC[C@@H](Oc4ccc(OCC(F)(F)F)nc4)C3=O)cc2C1=O",
    "EC50": "131 nM"
  },
  {
    "Compound": "O=C1c2cc(N3CC[C@@H](Oc4ccc(OCCC5CC5)nc4)C3=O)cc(F)c2CN1CCO",
    "EC50": "142 nM"
  }
]

Value lookup for EC50; key = CN(C)C(=O)CN1Cc2ccc(N3CC[C@@H](Oc4ccc(O[C@@H]5C[C@@H]6C[C@@H]6C5)nc4)C3=O)cc2C1=O
74 nM

Again, but for CN(C)C(=O)CN1Cc2ccc(N3CC[C@@H](Oc4ccc(OC(F)(F)F)cc4)C3=O)cc2C1=O
106 nM

Again, but for O=C(CN1Cc2c(F)cc(N3CC[C@@H](Oc4ccc(OCC5CC5)nc4)C3=O)cc2C1=O)N1CCC(O)CC1
88 nM

Again, but for C[S+]([O-])CN1Cc2c(F)cc(N3CC[C@@H](Oc4ccc(OCC5CC5)nc4)C3=O)cc2C1=O (stereo partly shown)
71 nM

---

The following compounds are shown together with reported EC50 values.
# Test Target: human GPR119 (Homo sapiens)
# Assay Summary: Functional cellular assay measuring GPR119-mediated cAMP release (HTRF) in HEK-293 cells stably expressing recombinant human GPR119
# Stated Conditions: cAMP response, cell line expressing human GPR119, 30 minutes at room temperature
Answer format reminder: number followed by unit.

[
  {
    "Compound": "NC(=O)CN1Cc2ccc(N3CC[C@@H](Oc4ccc(C(=O)C5CC5)cc4)C3=O)cc2C1=O [Example 2-53]",
    "Assay Value": "130 nM"
  },
  {
    "Compound": "CN(C)C(=O)CN1Cc2ccc(N3CC[C@@H](Oc4ccc(CCC5CC5)nc4)C3=O)cc2C1=O [Example 2-04]",
    "Assay Value": "156 nM"
  },
  {
    "Compound": "O=C(CN1Cc2c(F)cc(N3CC[C@@H](Oc4ccc(OCCC5CC5)nc4)C3=O)cc2C1=O)NCCO [Example 4-29]",
    "Assay Value": "157 nM"
  }
]

Value lookup for EC50; key = CN(C)C(=O)CN1Cc2c(F)cc(N3CC[C@@H](Oc4ccc(OCC(C)(C)C)nc4)C3=O)cc2C1=O [Example 6-02]
126 nM
